experiment: Intracorporeal kinetics and oral absorbing property test (dog, oral cassette); type: in vivo; conditions: orally administered, 0.5 mg/kg cassette
Readout kind: Cltot (apparent plasma clearance) (mL/min/kg)

> print(dat)
                              record.smiles                       readout.kind  experimental.result
1  CO[C@H]1C[C@@H](c2ncc(CCC(=O)O)s2)N(C(=O)Cc2cc(Cl)c(NC(=O)c3csc4ccccc34)cc2F)C1  Cltot (apparent plasma clearance)                 0.82
2  Cn1cc(C(=O)Nc2cc(Cl)c(CC(=O)N3[C@H](c4ncc(CCC(=O)O)s4)C[C@@H]4CCCC[C@@H]43)cc2Cl)c2ccccc21  Cltot (apparent plasma clearance)                 0.42
3  COC[C@@H]1CC[C@@H](c2ncc(CCC(=O)O)s2)N1C(=O)Cc1ccc2nc(Nc3cc(F)ccc3C)oc2c1  Cltot (apparent plasma clearance)                 0.59
